Target: UniProt:P32241
Sequence (P32241 whole entry): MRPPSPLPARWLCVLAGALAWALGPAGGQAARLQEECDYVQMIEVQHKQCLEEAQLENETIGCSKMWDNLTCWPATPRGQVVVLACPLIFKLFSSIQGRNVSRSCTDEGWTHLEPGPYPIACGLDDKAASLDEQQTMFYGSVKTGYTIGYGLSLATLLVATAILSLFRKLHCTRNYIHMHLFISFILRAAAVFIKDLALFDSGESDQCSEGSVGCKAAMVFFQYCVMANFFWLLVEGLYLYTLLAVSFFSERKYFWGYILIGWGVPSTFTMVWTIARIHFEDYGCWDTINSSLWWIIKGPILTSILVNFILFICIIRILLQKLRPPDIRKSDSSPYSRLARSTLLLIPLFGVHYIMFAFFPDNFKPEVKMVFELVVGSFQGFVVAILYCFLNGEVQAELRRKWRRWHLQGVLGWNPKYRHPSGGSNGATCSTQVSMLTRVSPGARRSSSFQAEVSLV
Assay type: cell membranes, Membrane
Settings: ht-29; note: in other assays of this panel Not Active means under 50% inhibition at 10 µM
Recorded Endpoint: IC50

Please review the following examples before continuing.
Molecule	IC50
O=C(c1ccccc1)c1ccc2n1CCC2C(=O)O (centres undefined)	Not Active
CS(=O)(=O)c1ccc(C2=C(c3ccccc3)C(=O)OC2)cc1	Not Active
O=C(Nc1ccc(Cl)c(Cl)c1)c1cc(Cl)cc(Cl)c1O [3,3',4',5-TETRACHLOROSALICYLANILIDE]	Not Active
NC(=O)CN1CCCC1=O	Not Active
O=C1CN(/N=C/c2ccc([N+](=O)[O-])o2)C(=O)N1	Not Active
CN(C)CCC=C1c2ccccc2COc2ccccc21 [DOXEPIN]	Not Active
CC12CCC(CC1)C(C)(C)O2	Not Active
CC[C@H]1OC(=O)[C@H](C)[C@@H](O[C@H]2C[C@@](C)(OC)[C@@H](O)[C@H](C)O2)[C@H](C)[C@@H](O[C@@H]2O[C@H](C)C[C@H](N(C)C)[C@H]2O)[C@](C)(O)C[C@@H](C)C(=O)[C@H](C)[C@@H](O)[C@]1(C)O	Not Active

Ask: Recall the recorded IC50 for O=[As][O-].[Na+] [SODIUM ARSENITE] with UniProt:P32241 and state it.
Result: Not Active
